Source: the supplement of paper PMC11865577

# System: G-clamp-N3 (biotin conjugate)
# ASSAY COMMENT: pull-down binding Z-score (relative to library population); higher = stronger binding
# RUN PARAMETERS: RNA library: Library-1 (pre-miRNA loops + repeats)
Would you kindly list pull-down binding Z-score for each of these sequences?
One number for each entry.

Here are 10 sequences together with their reported answers.
AGCAGUACCAGAUGGUUCUGUGG [hsa-mir-3198-2]    -1.54
UCAGCUGUGAGCUCAAGGUGGCUGG [hsa-mir-30c-1]    1.32
UUUAAGACACCCUGUACCUUAAA [hsa-mir-3121]    -1.57
UAAUGAUUGGAGUCAUUUUCAGAGCAUUA [hsa-mir-3202-1]    1.44
CUGUCUGUUGUAUAAAAGAAAAGAUCG [hsa-mir-517a]    -0.46
AUUGCACGUGUGUGAGGCGGGUGCAGU [hsa-mir-33b]    0.513
UUUGUGGAUUUUGAAAAGGUGCAGG [hsa-mir-15a]    1.81
UAAUCACAGGCCACAUUUCUGAAUA [hsa-mir-1295b]    -1.08
CAGGCCAGGGGCAGACAGUGGACAGAGAACAGUGCCCAAGACCACUG [hsa-mir-378e]    1.13
CCAAGUCUGACCACCUGAGGAAUGCCUGG [hsa-mir-1269a]    -0.858

I'm hoping you can list pull-down binding Z-score for every sequence here, please.
1. CUACAUCGUGGAAGCCAGCACCAUGCAG [hsa-mir-455]
2. GUUUGGGUGCGGUUGGGAGUCUCUAAU [hsa-mir-200c]

[0.169, 0.194]

Could I get pull-down binding Z-score for every one of these entries?
1. CAGUGUUAGCUCCAGAAGCAUUG [hsa-mir-3170]
2. AGUCCUGUAAUUAGAUCUCAGGACU [hsa-mir-625]
3. UAUAUUCGGUUUAUUGACAUGGAAUAUA [hsa-mir-381]
4. GUUUCUAAAAAAAUAAAAAGUUAAAAAAAUUUAUGUUAACGUGUAAUGUGUUUACUAAUUUUUUUUUUUUUUUUUGGAGAC [hsa-mir-3908]

1.14
-0.0681
2.02
-1.28

Dear reader, for each entry below, please note its pull-down binding Z-score.
1. AUUUCUGUGUUCGUUAGGCAACAG [hsa-mir-221]
2. CUCACGUGUGCCUGCCUGUGAG [hsa-mir-339]
3. GACAUGCUCUGACUCCCCUGAUGUC [hsa-mir-6852]
4. AGAAAGUGAAACACUAUUUUAGGUUUU [hsa-mir-4458]
5. GGGGCCUGUGGUCCC [hsa-mir-1268a]
6. UUUGAAGUGUUCUAAAUGGUUCAAA [hsa-mir-424]

0.12
-0.747
0.588
-0.486
0.885
1.09

###

# Tested on: G-clamp-N3 (biotin conjugate)
# ASSAY COMMENT: pull-down binding Z-score (relative to library population); higher = stronger binding
# RUN PARAMETERS: RNA library: Library-1 (pre-miRNA loops + repeats)
What pull-down binding Z-score was measured for each of the following?
Give bare numbers.

Example results:
CAUGCAUGUGUCUAGAAAUAUGUUUU [hsa-mir-507]    0.0271
CUCUCGUGUCCACUAGCAGGCAGGUUUUCUGACACAGG [hsa-mir-604]    0.743
CUUGCUGUGACAUGACAAAAAUAAG [hsa-mir-302d]    -0.853
UAGGCCCACUGCUCAGUGGAGC [hsa-mir-7847]    0.533
CAGGAUUAGUGCUUAUGCUAAGAUGUCUUCACUG [hsa-mir-6773]    0.887

API: the following record is the query input.
Item GCACCUGUUUGUGAC [hsa-mir-4718] has what recorded pull-down binding Z-score?
-1.21

###

Assignment: determine reported pull-down binding Z-score for the given sequences.
# Tested on: G-clamp-N3 (biotin conjugate)
# ASSAY COMMENT: pull-down binding Z-score (relative to library population); higher = stronger binding
# RUN PARAMETERS: RNA library: Library-1 (pre-miRNA loops + repeats)
Give bare numbers.

Worked set:
AAAUGAGAGUUAGCCAGGAGCUUUGCAUACUCA [hsa-mir-6801]    -1.22
GGAAGAAGGCUGAGGGAGAUGCCUUCUUCC [hsa-mir-6512]    0.436
UGGGUAGGAAUAUCCUGGAUCCCCU [hsa-mir-3189]    -0.575
CUGUGCUGUCUCUGAGCACCG [hsa-mir-6827]    0.0113
CCUGCCACGUCAAAGGAGGCAGA [hsa-mir-3154]    1.11
CAGGUGUUCUUAAAAUCACCUG [hsa-mir-875]    -0.405

Below is a list of sequences. For each, state its recorded pull-down binding Z-score.
1. UAUAGCUACAUCAGUUAUAACUAUAUCAGUUAAA [hsa-mir-5582]
2. UGGAGUUUUUUUUUCCUCCUG [hsa-mir-4329]
3. GCUUGGAGCCUUGGUAGGGAAGCAAGCUGAGGAGAUAGGA [hsa-mir-7154]

1: -1.59; 2: -0.689; 3: 1.23

Return reported pull-down binding Z-score values for all items listed beneath this line.
1. UUCUGUUGUCUGAAAGAAAAGAA [hsa-mir-1283-2]
2. GGAGCUCUGUGCCUUUGGGUCCUGGUGAGCUCU [hsa-mir-6070]

1: 0.164; 2: 0.246

###

# Test system: TO-N3 (biotin conjugate)
# ASSAY COMMENT: pull-down binding Z-score (relative to library population); higher = stronger binding
# RUN PARAMETERS: RNA library: Library-2
Binary call on pull-down binding Z-score: yes from -0.5 upward, no beneath that.

Examples from the recorded data:
CGACUCCGUGGCAGAGUUCA [hsa-mir-3666]    yes
GUGGGUCAAGUUUAGAGAUGCACCAAC [hsa-mir-490]    yes
CUGAAAAUACAAAAUGGAAAAUUCCAG [hsa-mir-4494]    yes
GGUGUUUAUUACC    no
CUUCCCAUUUAAAAGUAAUGGCACA [hsa-mir-603]    yes

Determine whether this sequence has pull-down binding Z-score no lower than -0.5: UUUGCCAUUACUUUCAGUGGCAAA [hsa-mir-548aq]
no

Next sequence up: GGGCCACUGCCAGAAGACAAUGAACCAAGUGGUUAUGCCC [IAV_invivo_PB1_2_Motif_5+IAV_invivo_PB1_2_Motif_5]
yes

What about this sequence? UGGGUUAAGCCGAGCUGG [hsa-mir-4507]
yes

###

# System: TO-3-N3-2 (biotin conjugate)
# ASSAY COMMENT: pull-down binding Z-score (relative to library population); higher = stronger binding
# RUN PARAMETERS: RNA library: Library-2
MEASUREMENT TYPE: pull-down binding Z-score
Give bare numbers.

Quick request: pull-down binding Z-score for each listed item, please.
1. GGCCUGGGAUUCCUGCCUUCUAGGUC [hsa-mir-8078]
2. UUUUAGAA [hsa-mir-4443]
3. UCUUUCAUGGGA [DMSMaPseq_invitro_SARS-CoV-2_Motif_300]
4. UGGCUUCUGCCUCUUUCUUUGUGGAAGCCA [hsa-mir-4269]
5. GUUCUUGUAUGUGAGAAC [IAV_invivo_PA_3_Motif_23+IAV_invivo_PA_3_Motif_23]

[-0.0252, -0.535, 0.0379, -0.369, -0.614]

###

# Test system: TO-3-N3-2 (biotin conjugate)
# ASSAY COMMENT: pull-down binding Z-score (relative to library population); higher = stronger binding
# RUN PARAMETERS: RNA library: Library-2
Parameter class (string): assigned from measured pull-down binding Z-score. Ranges: band 1 = under -0.3, band 2 = from -0.3 up to -0.1, band 3 = -0.1 and over

These recorded examples may help you get a feel for the data.
AAGAGGUAAGAAGAAGUGAAGCCCUCUU [hsa-mir-4778]    band 3
UGUUACUUUAUAUUGACAUUAAUGGCAAUCUUCAUCCAGAUUCUGCCACUCUUGUUAGUGACA    band 2
UGGAGCUAGACCACAUGGGUUCA [hsa-mir-5100]    band 2

Into which category would you place UGGACCUCAGGGAAGAGGCUG [hsa-mir-4673] ?
band 2

// query: CACGCAUUUGCUUUACUUGCAAUGAUUAUA [hsa-mir-300]
band 3

Also check GAUUUCUAUGAGAACAUC [hsa-mir-3675]
band 1

What do you have for AACGGGGCGGGCCUGGGCGGGGUAA [G4_2A2_VEGF-Pu22-del] ?
band 3

Try the sequence CUCACUGCAGAAUUAUUUUGAG [hsa-mir-4524a]
band 2

Can you handle UUUUGUCUGA [hsa-mir-553] next?
band 2

Now try GAGUUUGGGAUUUGAAAAAACC [hsa-mir-181a-2] .
band 3

Then what about the sequence UGGGUUUGAGUCUGAAUCAACUCA [hsa-mir-181b-2] ?
band 2

What would you report for CCAGUAUGGUGG [IAV_invivo_PB1_2_Motif_36+IAV_invivo_PB1_2_Motif_36] ?
band 1

Can you handle UUCGCAUUAUUUAAUGAUGCCCA [hsa-mir-323b] next?
band 2

Another sequence to look at: GCCCCAUUCCUUGAUCGGCUUCGCCGAGAUCAGAAAUCCCUAAGAGGAAGGGGC [IAV_invivo_NS1_NEP_8_Motif_3+IAV_invivo_NS1_NEP_8_Motif_3]
band 2

Okay, and UAGCUGUACCCUAUAAUAUGAGAGUUAUACAUUUUGGUGCUGGUUCUGAUAAAGGAGUUGCACCAGGUACAGCUG ?
band 2
